# System: MERTK (human), Q12866 [H628Q/R794A]
# Sequence (Q12866 whole entry, looked up, stated change not applied): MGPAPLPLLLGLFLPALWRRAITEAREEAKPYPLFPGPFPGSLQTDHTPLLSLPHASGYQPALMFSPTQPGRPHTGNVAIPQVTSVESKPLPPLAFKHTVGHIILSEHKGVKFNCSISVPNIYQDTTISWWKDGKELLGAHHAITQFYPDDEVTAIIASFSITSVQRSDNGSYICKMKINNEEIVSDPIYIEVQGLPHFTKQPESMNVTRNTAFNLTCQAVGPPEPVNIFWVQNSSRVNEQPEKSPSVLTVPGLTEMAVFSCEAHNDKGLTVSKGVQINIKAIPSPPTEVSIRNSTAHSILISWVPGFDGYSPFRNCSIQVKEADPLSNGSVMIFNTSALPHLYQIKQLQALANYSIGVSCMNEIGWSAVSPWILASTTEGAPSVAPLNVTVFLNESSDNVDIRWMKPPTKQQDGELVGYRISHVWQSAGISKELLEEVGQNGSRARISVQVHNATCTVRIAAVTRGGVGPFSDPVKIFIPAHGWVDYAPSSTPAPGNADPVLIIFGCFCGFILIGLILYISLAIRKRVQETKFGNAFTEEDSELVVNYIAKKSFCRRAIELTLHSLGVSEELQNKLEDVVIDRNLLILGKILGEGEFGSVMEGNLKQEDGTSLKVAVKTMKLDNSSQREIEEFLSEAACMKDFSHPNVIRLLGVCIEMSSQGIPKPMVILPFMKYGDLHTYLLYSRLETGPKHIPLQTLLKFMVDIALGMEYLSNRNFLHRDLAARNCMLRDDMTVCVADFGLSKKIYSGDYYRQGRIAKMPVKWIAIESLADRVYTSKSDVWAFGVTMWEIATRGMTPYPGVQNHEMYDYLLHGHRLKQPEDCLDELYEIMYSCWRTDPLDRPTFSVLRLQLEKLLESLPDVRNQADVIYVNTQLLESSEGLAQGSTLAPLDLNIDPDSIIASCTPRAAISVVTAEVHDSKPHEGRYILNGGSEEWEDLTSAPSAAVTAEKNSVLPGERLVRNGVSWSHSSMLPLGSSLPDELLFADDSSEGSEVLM
# Measurement notes: radiometric filter-binding kinase assay, Kinaseprofiler
# Test settings: compound 10.0 µM; ATP 45 µM
So I've got a bunch of compounds here, and I need their residual activity values.
Give bare numbers, in %.

Previously resolved entries follow.
[
  {
    "Given smiles": "O=C1Nc2ccccc2/C1=C1\\Nc2ccccc2\\C1=N/O",
    "Endpoint value": -3
  },
  {
    "Given smiles": "COC(=O)[C@]1(O)C[C@@H]2O[C@@]1(C)n1c3ccccc3c3c4c(c5c6ccccc6n2c5c31)C(=O)NC4",
    "Endpoint value": 0
  },
  {
    "Given smiles": "O=C1c2ccccc2-c2n[nH]c3cccc1c23",
    "Endpoint value": 9
  }
]

Kindly consider the entry below.
Specify measured residual activity for CN[C@@H]1C[C@H]2O[C@@](C)([C@@H]1OC)n1c3ccccc3c3c4c(c5c6ccccc6n2c5c31)C(=O)NC4 .
0

Source: the kinase profiling compilation of Christmann-Franck et al. (2016)
